Target: Induced myeloid leukemia cell differentiation protein Mcl-1 (Homo sapiens)
Experiment: Mcl-1/Bim interaction regulators – biochemical, bead-based flow cytometry, multiplex, HTS hits, confirmation (AID 2086)
Settings: Bim-Mcl-1 interaction, at 100 µM (top of the series)
Calls of active or inactive are those of the source. The rule behind the calls is not given here.
measured-parameter: response, inhibition or activation

[[record]]
compound_smiles = "O=C1C(Cl)=C(N2CCN(c3ccccc3[N+](=O)[O-])CC2)C(=O)c2ccccc21"
measured_value = "inactive"

[[record]]
compound_smiles = "COc1cc(CNc2ccc3[nH]c(=O)[nH]c3c2)cc(Br)c1OCC(=O)NC(C)(C)C"
measured_value = "inactive"

[[record]]
compound_smiles = "Clc1nc(NCc2cccnc2)nc(N2CCOCC2)n1"
measured_value = "inactive"

